Sourced from ChEMBL document CHEMBL1649160

- protocol-details: Cmax in monkeypox virus infected cynomolgus monkey at 30 mg/kg, po administered as single dose under fed condition measured after 1 day
- Type: ADME, organism-based, Macaca fascicularis
- Set-up: dose 30 mg/kg, route oral
- experimental-context: in vivo
property-name: Cmax (ng/mL)

# compound, value
records = [
    ("O=C(NN1C(=O)[C@@H]2[C@@H]3C=C[C@@H]([C@H]4C[C@@H]34)[C@@H]2C1=O)c1ccc(C(F)(F)F)cc1 [TECOVIRIMAT]", 1150),
]

----------
- protocol-details: AUC (0 to 24 hrs) in monkeypox virus infected cynomolgus monkey at 20 mg/kg, po administered as single dose under fed condition measured after 1 day
- Type: ADME, organism-based, Macaca fascicularis
- Parameters: time < 24 hr, dose 20 mg/kg, route oral
- experimental-context: plasma
property-name: AUC(0-t) at 24 h (ng·h/mL)

# given-smiles, value
rows = [
    ("O=C(NN1C(=O)[C@@H]2[C@@H]3C=C[C@@H]([C@H]4C[C@@H]34)[C@@H]2C1=O)c1ccc(C(F)(F)F)cc1", 18400),
]

----------
- protocol-details: AUC (0 to 24 hrs) in human at 13.3 mg/kg, po qd for 6 days administered under fed condition measured after 6 days
- Type: ADME, organism-based
- Set-up: time < 24 hr, dose 13.3 mg/kg, route oral
- experimental-context: plasma

# molecule, readout-unit, AUC at 24 h
measured = [
    ("O=C(NN1C(=O)[C@@H]2[C@@H]3C=C[C@@H]([C@H]4C[C@@H]34)[C@@H]2C1=O)c1ccc(C(F)(F)F)cc1 [TECOVIRIMAT]", "ng·h/mL", 23400),
]

----------
- protocol-details: Cmax in monkeypox virus infected cynomolgus monkey at 30 mg/kg, po qd for 14 days administered under fed condition measured after 14 days
- Type: ADME, organism-based, Macaca fascicularis
- Design: dose 30 mg/kg, route oral
- experimental-context: in vivo
property-name: Cmax (ng/mL)

# given-smiles, value
rows = [
    ("O=C(NN1C(=O)[C@@H]2[C@@H]3C=C[C@@H]([C@H]4C[C@@H]34)[C@@H]2C1=O)c1ccc(C(F)(F)F)cc1", 1190),
]

----------
- protocol-details: AUC (0 to 24 hrs) in monkeypox virus infected cynomolgus monkey at 30 mg/kg, po administered as single dose under fed condition measured after 1 day
- Format: ADME, organism-based, Macaca fascicularis
- Parameters: time < 24 hr, dose 30 mg/kg, route oral
- experimental-context: plasma

# given-smiles, AUC(0-t) at 24 h [ng·h/mL]
measured = [
    ("O=C(NN1C(=O)[C@@H]2[C@@H]3C=C[C@@H]([C@H]4C[C@@H]34)[C@@H]2C1=O)c1ccc(C(F)(F)F)cc1", 18100),
]

----------
- protocol-details: AUC (0 to 24 hrs) in monkeypox virus infected cynomolgus monkey at 10 mg/kg, po qd for 14 days administered under fed condition measured after 14 days
- Assay type: ADME, organism-based, Macaca fascicularis
- Parameters: time < 24 hr, dose 10 mg/kg, route oral
- experimental-context: plasma
property-name: AUC at 24 h (ng·h/mL)

# given-smiles, readout-unit, value
measured = [
    ("O=C(NN1C(=O)[C@@H]2[C@@H]3C=C[C@@H]([C@H]4C[C@@H]34)[C@@H]2C1=O)c1ccc(C(F)(F)F)cc1", "ng·h/mL", 13500),
]
